target: UniProtKB O15393; test: Fluorogenic kinetic enzyme inhibitor assay, TMPRSS2; format: biochemical; parameters: purchased Cusabio Technology CSB-YP023924HU; conditions: 30 min incubation, Boc-QAR-AMC at Km; read-out: TMPRSS2 IC50
Sequence (O15393 106-492 limits assumed): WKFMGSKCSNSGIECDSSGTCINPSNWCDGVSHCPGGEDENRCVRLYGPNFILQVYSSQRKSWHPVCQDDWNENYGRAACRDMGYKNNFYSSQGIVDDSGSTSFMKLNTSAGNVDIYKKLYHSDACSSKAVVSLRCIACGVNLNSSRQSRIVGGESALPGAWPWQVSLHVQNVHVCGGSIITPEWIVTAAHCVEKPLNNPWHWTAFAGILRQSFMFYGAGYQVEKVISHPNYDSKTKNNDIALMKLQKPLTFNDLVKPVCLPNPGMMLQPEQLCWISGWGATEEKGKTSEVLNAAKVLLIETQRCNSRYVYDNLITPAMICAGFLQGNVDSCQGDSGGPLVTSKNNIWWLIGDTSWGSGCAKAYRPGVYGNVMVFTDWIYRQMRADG
Label yes (1) when IC50 < 4 nM; otherwise no (0).

Field: example entries. Status: answers known.
compound	class
CC(=O)N[C@H]1Cc2cn(nn2)CCCC[C@H](C(=O)N[C@@H](CCCNC(=N)N)C(=O)c2nc3ccccc3s2)NC(=O)[C@H](CC(C)C)NC1=O	no (0)
CC(=O)N[C@H]1Cc2ccc(cc2)OCCCC[C@@H](C(=O)N[C@@H](CCCNC(=N)N)C(=O)c2nc3ccccc3s2)NC(=O)[C@H](Cc2c[nH]c3ccccc23)NC1=O	no (0)
CC(=O)N[C@H]1Cc2ccc(cc2)Oc2cccc(c2)C[C@@H](C(=O)N[C@@H](CCCNC(=N)N)C(=O)c2nc3ccccc3s2)NC(=O)[C@H](CC(C)C)NC1=O [VD5064B]	no (0)
CC(=O)N[C@H]1CCCCn2cc(nn2)C[C@H](C(=O)N[C@@H](CCCNC(=N)N)C(=O)c2nc3ccccc3s2)NC(=O)[C@H](CC(C)C)NC1=O [VD4118B]	no (0)
CC(=O)N[C@H]1Cc2ccc(cc2)OCCCC[C@@H](C(=O)N[C@@H](CCCNC(=N)N)C(=O)c2nc3ccccc3s2)NC(=O)[C@@H](Cc2c[nH]c3ccccc23)NC1=O [VD4162B]	no (0)

Is IC50 of CC(=O)N[C@H]1Cc2ccc(cc2)OC/C=C\CNC(=O)CC[C@@H](C(=O)N[C@@H](CCCNC(=N)N)C(=O)c2nc3ccccc3s2)NC(=O)[C@H](CC(C)C)NC1=O strictly below 4 nM?
yes (1)

Criterion: IC50 strictly below 4 nM. Is it met by CC(=O)N[C@H]1Cc2ccc(cc2)OC/C=C\C[C@@H](C(=O)N[C@@H](CCCNC(=N)N)C(=O)c2nc3ccccc3s2)NC(=O)[C@@H](Cc2c[nH]c3ccccc23)NC1=O ?
yes (1)

Criterion: IC50 strictly below 4 nM. Is it met by CC(=O)N[C@H]1Cc2ccc(cc2)OCCCC[C@@H](C(=O)N[C@@H](CCCNC(=N)N)C(=O)c2nc3ccccc3s2)NC(=O)[C@H](CC(C)C)NC1=O ?
no (0)
